- SYSTEM_TESTED: Fatty acid-binding protein 5 [M35A,L60A] (Homo sapiens, UniProt Q01469, L60A/M35A)
- Sequence (Q01469 2-135 M35A/L60A limits assumed): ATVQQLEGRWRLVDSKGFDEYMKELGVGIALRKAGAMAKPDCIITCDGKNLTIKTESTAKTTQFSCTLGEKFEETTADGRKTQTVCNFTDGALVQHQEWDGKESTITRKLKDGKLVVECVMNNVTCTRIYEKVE
- EXPERIMENTAL_DETAILS: Ligand Binding Assay
- CONDITION_INFO: pH 8.2; 30 °C
pKd: −log10 of the molar value.

{"TEST_SMILES": "O=S(=O)(O)c1cccc2cccc(Nc3ccccc3)c12", "pKd": 5.21}

---

- SYSTEM_TESTED: Fatty acid-binding protein 5 [K24A,R33A,K34A] (Homo sapiens, UniProt Q01469, K24A/K34A/R33A)
- Sequence (Q01469 2-135 K24A/R33A/K34A limits assumed): as the sequence (Q01469 2-135 M35A/L60A limits assumed) above, with K23A, R32A, K33A, A34M, A59L counted along it
- EXPERIMENTAL_DETAILS: Ligand Binding Assay
- CONDITION_INFO: pH 8.2; 30 °C

{"COMPOUND": "CCCCCC/C=C\\CCCCCCCC(=O)O", "UNIT_OF_MEASURE": "nM", "Ki": 1640}
{"COMPOUND": "CCCCC/C=C\\C/C=C\\CCCCCCCC(=O)O", "UNIT_OF_MEASURE": "nM", "Ki": 2170}
{"COMPOUND": "CCCCCCCCN[C@H]1C=C(CO)[C@@H](O)[C@H](O)[C@H]1O", "UNIT_OF_MEASURE": "nM", "Ki": 1240}
{"COMPOUND": "CCCCC/C=C\\C/C=C\\C/C=C\\C/C=C\\CCCC(=O)O [[1-14C]Arachidonic acid]", "UNIT_OF_MEASURE": "nM", "Ki": 9370}

---

In this section, each of the compounds is paired with its reported Ki.
- SYSTEM_TESTED: Fatty acid-binding protein 5 [M35A,L60A] (Homo sapiens, UniProt Q01469, L60A/M35A)
- EXPERIMENTAL_DETAILS: Ligand Binding Assay
- CONDITION_INFO: pH 8.2; 30 °C
READOUT: Ki (nM)

{"COMPOUND": "CCCCC/C=C\\C/C=C\\C/C=C\\C/C=C\\CCCC(=O)O [[1-14C]Arachidonic acid]", "VALUE_OBSERVED": 5010}
{"COMPOUND": "CCCCC/C=C\\C/C=C\\CCCCCCCC(=O)O", "VALUE_OBSERVED": 3470}
{"COMPOUND": "CCCCCC/C=C\\CCCCCCCC(=O)O [(9Z)-hexadec-9-enoic acid]", "VALUE_OBSERVED": 1780}
{"COMPOUND": "CCCCCCCCN[C@H]1C=C(CO)[C@@H](O)[C@H](O)[C@H]1O [NOEV]", "VALUE_OBSERVED": 700}
